Recorded below: log10 of Kd, system SOS1 catalytic domain (residues 564-1049) (Homo sapiens (Human)).
Recorded Kd (log10, nM)

Some molecules with recorded log10 of Kd:
MOLECULE	log10 of Kd
C[C@@H](Nc1ncnc2c1cc(C(=O)N1CCc3ncccc31)c(=O)n2C)c1cccc(C(F)F)c1F	2.43
C[C@@H](Nc1ncnc2c1cc(C(=O)N1CCn3ccnc3C1)c(=O)n2C)c1cccc(C(F)F)c1F	2.51
CC(=O)N1CC=C(c2cc3c(N[C@H](C)c4cccc(C(F)F)c4F)nc(C)nc3n(C)c2=O)CC1	2.14

Record log10 of Kd for all entries; do not skip any.
1. C[C@@H](Nc1ncnc2c1cc(C(=O)N1CCCOCC1)c(=O)n2C)c1cccc(C(F)F)c1F
2. Cc1nc(N[C@H](C)c2cccc(C(F)F)c2F)c2cc(C3CCN(C)CC3)c(=O)n(C)c2n1
3. C[C@@H](Nc1ncnc2c1cc(C(=O)N(C)c1nccs1)c(=O)n2C)c1cccc(C(F)F)c1F

Result:
[2.25, 1.81, 3.16]

Kindly give each listed record's log10 of Kd.
1. C[C@@H]1CN(C(=O)c2cc3c(N[C@H](C)c4cccc(C(F)F)c4F)ncnc3n(C)c2=O)C[C@@H](C)O1
2. Cc1nc(N[C@H](C)c2cccc(C(F)F)c2F)c2cc(C3CCS(=O)(=O)CC3)c(=O)n(C)c2n1
3. C[C@@H](Nc1ncnc2c1cc(C(=O)N1CCc3ccncc31)c(=O)n2C)c1cccc(C(F)F)c1F
4. Cc1nc(N[C@H](C)c2cccc(C(F)F)c2F)c2cc(C3=CCOC3)c(=O)n(C)c2n1
5. Cc1nc(N[C@H](C)c2cccc(C(F)F)c2F)c2cc(C3(F)CCN(C)CC3)c(=O)n(C)c2n1
6. Cc1nc(N[C@H](C)c2cccc(C(F)F)c2F)c2cc(C3=CCS(=N)(=O)CC3)c(=O)n(C)c2n1 (stereo partly drawn)

Result:
[2.06, 1.92, 2.13, 2.55, 1.72, 1.94]

----------
Recorded below: Kd, system SOS1 catalytic domain (residues 564-1049) (Homo sapiens (Human), UniProt Q07889).
Give bare numbers, in nM.

MOLECULE	VALUE
COc1ncccc1-c1cc2c(N[C@H](C)c3cccc(C(F)F)c3F)ncnc2n(C)c1=O [Example 21-7]	92.5

For each of the items listed, what is its Kd?
1. C[C@@H](Nc1ncnc2c1cc(C1CCOCC1)c(=O)n2C)c1cccc(C(F)F)c1F [Example 1-30]
2. C[C@@H](Nc1ncnc2c1cc(C1=CCN(C)CC1)c(=O)n2C)c1cccc(C(F)(F)F)c1 [Example 1-8]

Result:
[20.1, 20]
